Cited source: ChEMBL document CHEMBL6182833

experiment: Selectivity index, ratio of CC50 for human HEp-2 cells to IC50 for Respiratory syncytial virus type A infected in human HEp-2 cells; assay type: cell-based; conditions: read-out: Ratio CC50/IC50
measured-property: selectivity ratio
Response field accepts a number only; no unit should be typed.

Sample records with selectivity ratio:
CC(C)=CCC/C(C)=C/Cn1cc(COc2ccc3c(C)cc(=O)oc3c2)nn1 = 2.5
CC1(C)[C@@H]2CC=C(COc3ccc4c5c(c(=O)oc4c3)CCC5)[C@H]1C2 = 100
CC1(C)[C@H]2CC=C(Cn3cc(COc4ccc5c6c(c(=O)oc5c4)CCCC6)nn3)[C@@H]1C2 = 50

The molecule listed as CC1(C)[C@H]2CC=C(COc3ccc4c5c(c(=O)oc4c3)CCCC5)[C@@H]1C2 shows selectivity ratio equal to 3.5

The reported value for CC1(C)[C@@H]2CC=C(Cn3cc(COc4ccc5c6c(c(=O)oc5c4)CCC6)nn3)[C@H]1C2 in terms of selectivity ratio is 7.6

Lookup result for CC(C)=CCCC(C)=CCn1cc(COc2ccc3c4c(c(=O)oc3c2)CCC4)nn1 ; measured selectivity ratio: 3.3

Short answer for Cc1cc(=O)oc2cc(OCC3=CC[C@H]4C[C@@H]3C4(C)C)ccc12 : selectivity ratio was 27.4

According to the records, this molecule CC1(C)[C@@H]2CC=C(Cn3cc(COc4ccc5c6c(c(=O)oc5c4)CCCC6)nn3)[C@H]1C2 displays selectivity ratio of 6.3

selectivity ratio reported for this molecule Cc1cc(=O)oc2cc(OCc3cn(CC4=CC[C@@H]5C[C@H]4C5(C)C)nn3)ccc12 : 3.3

Sure, the documented selectivity ratio for Cc1cc(=O)oc2cc(OCc3cn(Cc4ccc(C(C)C)cc4)nn3)ccc12 is 9

Documented selectivity ratio of CC(C)=CCCC(C)=CCn1cc(COc2ccc3c4c(c(=O)oc3c2)CCCC4)nn1 : 605

The recorded selectivity ratio for Cc1cc(=O)oc2cc(OCc3cn(CC4=CC[C@H]5C[C@@H]4C5(C)C)nn3)ccc12 is 2.2

The molecule listed as CC(C)=CCC/C(C)=C/CCOc1ccc2c3c(c(=O)oc2c1)CCCC3 has a reported selectivity ratio of 90

Measured selectivity ratio of CC(C)=CCC/C(C)=C/CCOc1ccc2c(C)cc(=O)oc2c1 : 10.3

selectivity ratio measured on CC(C)=CCCC(C)=CCn1cc(COc2ccc3c(-c4ccccc4)cc(=O)oc3c2)nn1 = 37

Recorded result, CC(C)c1ccc(Cn2cc(COc3ccc4c5c(c(=O)oc4c3)CCC5)nn2)cc1 , selectivity ratio: 1.8

Reported selectivity ratio for CC1(C)[C@@H]2CC=C(COc3ccc4c5c(c(=O)oc4c3)CCCC5)[C@H]1C2 was 77

---

In this section we review reported pIC50 values for a set of compounds.
system: Human orthopneumovirus; assay: Antiviral activity against Respiratory syncytial virus type B infected in human HEp-2 cells assessed as inhibition of viral replication preincubated with cells followed by viral infection for 1 hr followed by virus washout and further incubated with compound for 6 days by ELISA method; format: functional, organism-based; conditions: read-out: IC50
Keep it numeric: pIC50 is minus log10 of the concentration in mol/L.

Solved cases below.
CC1(C)[C@@H]2CC=C(Cn3cc(COc4ccc5c6c(c(=O)oc5c4)CCC6)nn3)[C@H]1C2 = 5.14
CC(C)CCCC(C)CCn1cc(COc2ccc3c(-c4ccccc4)cc(=O)oc3c2)nn1 (centres undefined) = 5.28
CC(C)CCCC(C)CCn1cc(COc2ccc3c4c(c(=O)oc3c2)CCCC4)nn1 (centres undefined) = 5.35
CC(C)CCCC(C)CCn1cc(COc2ccc3c4c(c(=O)oc3c2)CCC4)nn1 (centres undefined) = 6.64

The recorded pIC50 with Human orthopneumovirus for CC(C)=CCC/C(C)=C\Cn1cc(COc2ccc3c(C)cc(=O)oc3c2)nn1 was 5.96

---

tested on: Human orthopneumovirus; experiment: Antiviral activity against Respiratory syncytial virus type B infected in human HEp-2 cells assessed as inhibition of viral replication preincubated with cells followed by viral infection for 1 hr followed by virus washout and further incubated with compound for 6 days by ELISA method; format: functional, organism-based; conditions: read-out: IC50
measured-property: pIC50
# pIC50 is unitless: minus log10 of the molar concentration; print number only

CC(C)c1ccc(Cn2cc(COc3ccc4c5c(c(=O)oc4c3)CCCC5)nn2)cc1 = 4.63
CC1(C)[C@@H]2CC=C(COc3ccc4c5c(c(=O)oc4c3)CCCC5)[C@H]1C2 = 5.31
NC(=O)c1ncn([C@@H]2O[C@H](CO)[C@@H](O)[C@H]2O)n1 = 4.26
CC1(C)[C@H]2CC=C(COc3ccc4c5c(c(=O)oc4c3)CCCC5)[C@@H]1C2 = 4.22
CC(C)c1ccc(Cn2cc(COc3ccc4c5c(c(=O)oc4c3)CCC5)nn2)cc1 = 4.59

Query CC1(C)[C@H]2CC=C(Cn3cc(COc4ccc5c6c(c(=O)oc5c4)CCCC6)nn3)[C@@H]1C2 yields pIC50 of 5.89

// sample CC(C)=CCCC(C)=CCn1cc(COc2ccc3c4c(c(=O)oc3c2)CCC4)nn1 , its pIC50 was 5.19

For CC1(C)[C@@H]2CC=C(Cn3cc(COc4ccc5c(-c6ccccc6)cc(=O)oc5c4)nn3)[C@H]1C2 the compound record lists pIC50 as 5.20

pIC50 reported for this compound Cc1cc(=O)oc2cc(OCc3cn(CC4=CC[C@@H]5C[C@H]4C5(C)C)nn3)ccc12 : 5.12

---

assay: Selectivity index, ratio of CC50 for human HEp-2 cells to IC50 for Respiratory syncytial virus type B infected in human HEp-2 cells; type: cell-based; conditions: read-out: Ratio CC50/IC50
Output Fulfilled for records whose selectivity ratio is lower than 3, Not fulfilled for records at or above 3.

Cc1cc(=O)oc2cc(OCc3cn(CC4=CC[C@@H]5C[C@H]4C5(C)C)nn3)ccc12 = Fulfilled
Cc1cc(=O)oc2cc(OCC3=CC[C@@H]4C[C@H]3C4(C)C)ccc12 = Not fulfilled

Query block: Decide: selectivity ratio of CC(C)=CCC/C(C)=C/CCOc1ccc2c3c(c(=O)oc2c1)CCCC3 strictly below 3?
Result block: Not fulfilled

Query block: Dear reviewer, please state whether CC1(C)[C@@H]2CC=C(COc3ccc4c5c(c(=O)oc4c3)CCC5)[C@H]1C2 has selectivity ratio strictly beneath 3.
Result block: Not fulfilled

Query block: Does the reported selectivity ratio of the following molecule sit strictly below 3? CC1(C)[C@@H]2CC=C(Cn3cc(COc4ccc5c6c(c(=O)oc5c4)CCC6)nn3)[C@H]1C2
Result block: Not fulfilled

Query block: Is 3 strictly greater than the molecule's reported selectivity ratio? molecule: CC1(C)[C@@H]2CC=C(Cn3cc(COc4ccc5c6c(c(=O)oc5c4)CCCC6)nn3)[C@H]1C2
Result block: Not fulfilled

---

log10 CC50 values for the compounds below.
system: HEp-2; experiment: Cytotoxicity against human HEp-2 cells assessed as cell growth inhibition measured after 24 hrs by MTT assay; assay type: functional
Give log10 of CC50, with CC50 taken in µM.

Sample records with log10 CC50:
CC(C)=CCC/C(C)=C/Cn1cc(COc2ccc3c(C)cc(=O)oc3c2)nn1 = 1.18
CC(C)c1ccc(Cn2cc(COc3ccc4c5c(c(=O)oc4c3)CCCC5)nn2)cc1 = 1.58
CC(C)=CCC/C(C)=C\Cn1cc(COc2ccc3c(C)cc(=O)oc3c2)nn1 = 1.17
Cc1cc(=O)oc2cc(OCC3=CC[C@H]4C[C@@H]3C4(C)C)ccc12 = 2.90
CC(C)=CCC/C(C)=C/CCOc1ccc2c(C)cc(=O)oc2c1 = 2.68
CC1(C)[C@@H]2CC=C(Cn3cc(COc4ccc5c6c(c(=O)oc5c4)CCCC6)nn3)[C@H]1C2 = 1.41
CC(C)=CCC/C(C)=C/CCOc1ccc2c3c(c(=O)oc2c1)CCC3 = 1.42
CC1(C)[C@@H]2CC=C(Cn3cc(COc4ccc5c6c(c(=O)oc5c4)CCC6)nn3)[C@H]1C2 = 1.72
CC(C)c1ccc(Cn2cc(COc3ccc4c(-c5ccccc5)cc(=O)oc4c3)nn2)cc1 = 1.93
Cc1cc(=O)oc2cc(OCc3cn(CC4=CC[C@@H]5C[C@H]4C5(C)C)nn3)ccc12 = 1.35

Looking up Cc1cc(=O)oc2cc(OCc3cn(CC4=CC[C@H]5C[C@@H]4C5(C)C)nn3)ccc12 , I found its log10 CC50 recorded as 1.16

Lab note: measured log10 CC50 of CC1(C)[C@H]2CC=C(Cn3cc(COc4ccc5c6c(c(=O)oc5c4)CCC6)nn3)[C@@H]1C2 was 2.44

Measured log10 CC50, CC(C)CCCC(C)CCn1cc(COc2ccc3c4c(c(=O)oc3c2)CCC4)nn1 (stereo not drawn) : 2.42

Quick note, log10 CC50 for Cc1cc(=O)oc2cc(OCc3cn(Cc4ccc(C(C)C)cc4)nn3)ccc12 landed at 1.30

The compound identified as CC(C)CCCC(C)CCn1cc(COc2ccc3c4c(c(=O)oc3c2)CCCC4)nn1 (stereo not drawn) registered its log10 CC50 at 1.35

log10 CC50 measured on CC1(C)[C@H]2CC=C(Cn3cc(COc4ccc5c(-c6ccccc6)cc(=O)oc5c4)nn3)[C@@H]1C2 = 1.14

Record CC1(C)[C@H]2CC=C(Cn3cc(COc4ccc5c6c(c(=O)oc5c4)CCCC6)nn3)[C@@H]1C2 , field log10 CC50: 1.48
